Multiple publications report IC50 for HPK1 (Homo sapiens (Human)); what follows is a combined list.

Prompt: Report IC50 for "CN(C)Cc1nc(Nc2ccc(-c3cnc4cc(F)ccn34)c3c2C(=O)NC3)ccc1[C@H]1CCN(C)C(=O)C1" please.
Response: < 100 nM

Prompt: Need IC50, item "COC(=O)c1ccccc1Nc1nc(Nc2cc3c(cc2OC)CCN(C)C3)ncc1C(N)=O"
Response: 0.88 nM

Prompt: Which value of IC50 has been reported for "COc1ncccc1-c1cccc2cnc(Nc3cc4c(nc3C)CCN(C)C4)nc12" in the records?
Response: 1.93 nM

Prompt: What IC50 value was documented for this compound, "CC(C)n1ccc2c(-c3ccc(Nc4ccc(N5CCN(C)CC5)cn4)c4c3CNC4=O)ccnc21" ?
Response: 100 to 1000 nM

Prompt: Please give the measured IC50 for this compound: O=C1NCc2c(-c3ccncc3)ccc(Nc3cc(C4CCOC4)n[nH]3)c21 (centres unmarked)
Response: < 1000 nM

Prompt: Request the reported IC50 associated with "CC(C)(O)[C@H]1CN(c2ccc(Nc3ccc(-c4cnc5cc(F)ccn45)c4c3C(=O)NC4)nc2)CCO1"
Response: < 100 nM

Prompt: Could you share which IC50 value was measured for "CC(C)(O)c1cc(Nc2ccc(N3CCC(O)CC3)cn2)c2c(=O)[nH]ccc2n1" ?
Response: ≤ 100 nM

Prompt: Could you tell me which IC50 is on file for "Cn1c(C(F)(F)F)nc2c(N3CC[C@H](N)C3)c(NC(=O)c3ccnn(-c4c(F)cccc4F)c3=O)ccc21" ?
Response: 100 to 1000 nM

* * *

Literature survey of pIC50 (system: HPK1 (Homo sapiens (Human))).
pIC50: −log10 of the molar value.

Prompt: Lab note: need pIC50 with HPK1 (Homo sapiens (Human)) for entry "COc1cccc(F)c1-c1cc(Nc2ccc(N3CCC(O)CC3)cn2)c2c(=O)[nH]ccc2n1" , please look it up.
Response: 6.00 to 7.00

Prompt: What value of pIC50 on HPK1 (Homo sapiens (Human)) does "COc1cc2c(cc1Nc1ncc(C(N)=O)c(Nc3cccc4c3OC(C)(C)C4)n1)CN(C)CC2" have?
Response: 9.72

Prompt: Tell me reported pIC50 for "CN(C)Cc1nc(Nc2ccc(-c3cnc4cc(F)ccn34)c3c2C(=O)NC3)ccc1C1CCCC1" , tested with HPK1 (Homo sapiens (Human)).
Response: ≥ 7.00

Prompt: Query pIC50 on HPK1 (Homo sapiens (Human)) for "CC(C)(O)[C@H]1CCCN(c2ccc(Nc3cnc(-c4cnc5c(F)cccn45)c4c3C(=O)NC4)nc2)C1"
Response: > 7.00

* * *

Here's a roundup of pIC50 values tested on HPK1 (Homo sapiens (Human), UniProt Q92918), taken from various published works.
Reminder that pIC50 is minus the log10 of a molar concentration.

Prompt: Find the recorded pIC50 belonging to "CNC(=O)C1(c2ccc(Nc3ncc4c(N)c(F)c(-c5cnc6c(c5C)NCCO6)cc4n3)cc2)CCCC1" and report it.
Response: 10.38

Prompt: If you can, please state the reported pIC50 value of Cc1c(-c2cc3nc(Nc4ccc([S+](C)[O-])cc4)ncc3c(N)c2F)cnc2c1NCCO2 (stereo not shown) .
Response: 10.41

Prompt: Reported pIC50, compound "COc1cc2c(cc1Nc1ncc3ccc(-c4cnn5c4CCC5)cc3n1)CNCC2" : ____
Response: 9.16

Prompt: Tell me the measured pIC50 of "O=C1NCCN1c1cccc(-c2cnc3[nH]cc(C4CC4)c3c2Cl)n1" , please.
Response: 7.84

Prompt: Field request: pIC50 | item: "Cc1c(-c2cc3nc(Nc4ccc(CS(C)(=O)=O)cc4)ncc3c(N)c2F)cnc2c1NCCO2"
Response: 10.29

Prompt: // pIC50 lookup, key: "COc1cc2c(cc1Nc1ncc3ccc(-c4ccn5ncnc5c4)cc3n1)CN(C)CC2"
Response: 6.81

Prompt: If you can, please state the reported pIC50 value of "COc1cc2c(cc1Nc1ncc3ccc(-c4cccc(C(C)=O)c4)cc3n1)CNCC2" .
Response: 6.88

Prompt: Given the compound "Cc1cc(-c2cnc(N)c(Oc3cnn([C@H]4CC[C@@](C)(O)CC4)c3)n2)cc2c1CCN(C)C2" , what is its reported pIC50?
Response: 8.11

Prompt: Look up pIC50 for this compound: "COc1cc(N2CCNCC2)ccc1Nc1ncc(C(N)=O)c(Nc2ccccc2Br)n1"
Response: 7.47

Prompt: Given "Cc1cc(-c2cnc(N)c(-n3cc(C(=O)NCCN4CCCC4)cn3)n2)cc2c1CCN(C)C2" , state its recorded pIC50.
Response: 7.85

Prompt: // returns reported pIC50 for input "COc1ccc(Cl)cc1Nc1ncc(C(N)=O)c(Nc2cccc3c2CCNC3=O)n1"
Response: 6.73

Prompt: Quick one: pIC50 for "COc1cc2c(cc1Nc1ncc(C(N)=O)c(Nc3ccccc3Br)n1)CN(C1CCOCC1)CC2" ?
Response: 9.08

Prompt: Field request: pIC50 | item: "Cc1cc(-c2cnc3[nH]cc(-c4ccc(C(=O)N(C)C[C@H]5CCOC5)cc4)c3c2)cc2c1N1CCN(C)C[C@H]1CC2"
Response: 7.49
